Target: TCF/LEF luciferase reporter in DLD1 cells (Homo sapiens, UniProt P35222)
Sequence (P35222 2-781): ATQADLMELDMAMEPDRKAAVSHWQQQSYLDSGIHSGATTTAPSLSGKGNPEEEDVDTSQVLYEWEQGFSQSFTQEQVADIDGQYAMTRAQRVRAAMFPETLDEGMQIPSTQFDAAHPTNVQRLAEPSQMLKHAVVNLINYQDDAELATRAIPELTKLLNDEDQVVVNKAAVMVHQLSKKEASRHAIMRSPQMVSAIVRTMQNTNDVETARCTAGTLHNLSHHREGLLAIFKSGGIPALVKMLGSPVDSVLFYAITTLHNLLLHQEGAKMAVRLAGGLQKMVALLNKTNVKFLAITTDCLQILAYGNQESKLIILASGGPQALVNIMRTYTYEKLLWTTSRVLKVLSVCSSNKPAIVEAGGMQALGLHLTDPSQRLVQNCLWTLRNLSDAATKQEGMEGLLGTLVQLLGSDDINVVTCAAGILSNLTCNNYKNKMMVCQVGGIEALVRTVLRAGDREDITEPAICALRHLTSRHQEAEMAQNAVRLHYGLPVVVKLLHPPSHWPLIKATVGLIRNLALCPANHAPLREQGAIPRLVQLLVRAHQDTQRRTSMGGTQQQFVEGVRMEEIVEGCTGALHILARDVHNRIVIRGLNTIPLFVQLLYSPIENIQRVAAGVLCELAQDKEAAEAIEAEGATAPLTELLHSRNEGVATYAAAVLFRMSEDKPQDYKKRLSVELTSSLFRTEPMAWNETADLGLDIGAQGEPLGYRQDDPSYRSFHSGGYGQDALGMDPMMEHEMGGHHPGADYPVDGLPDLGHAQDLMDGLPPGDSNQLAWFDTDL
Experiment: TCF reporter assay in DLD1 cells (4% or 20% FBS)
Format: cell-based
Conditions: read-out: DLD1 4% Abs IC50; DLD1 TCF reporter, 4% FBS
Readout Type: IC50

Example entries and their recorded answers appear below.
Substance	IC50
Ac-PL3-Asp-Npg-B5-Asp-3COOHF-Aib-Ala-Phe-Lys*3-PyrS2-2F3MeF-BztA-GlnR*3-Ala-NH2 [I-69]	≤ 1000 nM
Ac-PL3-Asp-Npg-B5-Asp-3COOHF-Ala-Ala-Phe-iPrLys*3-PyrS2-3Thi-BztA-hGlnR*3-Ala-NH2 [I-187]	> 5000 nM
Ac-PL3-Glu-Npg-B5-Glu-3COOHF-Aib-Ala-Phe-Lys*3-PyrS2-2F3MeF-BztA-GlnR*3-Ala-NH2 [I-291]	1000 to 5000 nM
Ac-PL3-Asp-Npg-B5-Asp-3COOHF-CyLeu-Ala-Phe-Lys*3-PyrS2-2F3MeF-BztA-GlnR*3-Leu-Ser-NH2 [I-141]	≤ 1000 nM

Batch of 3 substances: report IC50 for each.
1. Ac-PL3-Asp-Npg-B5-Asp-3COOHF-Cpg-Ala-Phe-Lys*3-PyrS2-2F3MeF-BztA-GlnR*3-Leu-Ser-NH2 [I-139]
2. Ac-PL3-Asp-Npg-B5-Asp-TfeGA-Ala-Ala-Phe-Lys*3-PyrS2-2F3MeF-BztA-GlnR*3-Leu-NH2 [I-128]
3. Ac-PL3-Asp-Npg-B5-Asp-3COOHF-nLeu-Ala-Phe-Lys*3-PyrS2-3Thi-BztA-GlnR*3-Ala-NH2 [I-70]

Result:
["≤ 1000 nM", "1000 to 5000 nM", "≤ 1000 nM"]

###

biological target: beta-catenin/TCF4 interaction (Homo sapiens, UniProt P35222); construct: host or cells: HEK293; format: cell-based; conditions: read-out: NanoBRET IC50
pIC50: −log10 of the molar value.
Readout Type: pIC50

Ask: Quick one: give measured pIC50 for Ac-PL3-Glu-Npg-B5-Glu-3COOHF-Aib-Ala-Phe-Lys*3-PyrS2-3Thi-BztA-GlnR*3-Ala-NH2 [I-470]
Result: < 4.70

###

molecular target: full-length B-Catenin (Uniprot ID P35222) (Homo sapiens); construct: 10 nM full-length B-Catenin (Uniprot ID P35222); type: binding; conditions: competition fluorescence polarization; read-out: beta-Catenin FP IC50
Readout Type: IC50

Example entries and their recorded answers appear below.
Substance	Subject Of Test	Observed
4pentenyl-MePro-Asp-B5-Ala-Asp-3COOHF-Ala-Ala-Phe-PyrS2-Lys*3-3Thi-BztA-Ala-GlnR*3-NH2 [I-932]	full-length B-Catenin (Uniprot ID P35222) (Homo sapiens)	> 1 µM
4pentenyl-MePro-Asp-B5-Ala-Asp-3COOHF-Ala-Ala-Phe-PyrS2-Lys*3-3Thi-BztA-Ala-GlnR*3-NH2 [I-993]	full-length B-Catenin (Uniprot ID P35222) (Homo sapiens)	0.75 to 1 µM

Ask: Quick one: give measured IC50 for 4pentenyl-ThioPro-Asp-B5-Ala-Asp-3COOHF-Ala-Ala-Phe-PyrS2-Lys*3-3Thi-BztA-Ala-GlnR*3-NH2 [I-933]
Result: > 1 µM

###

Biological target: TCF/LEF luciferase reporter in DLD1 cells (Homo sapiens)
Sequence (P35222 2-781): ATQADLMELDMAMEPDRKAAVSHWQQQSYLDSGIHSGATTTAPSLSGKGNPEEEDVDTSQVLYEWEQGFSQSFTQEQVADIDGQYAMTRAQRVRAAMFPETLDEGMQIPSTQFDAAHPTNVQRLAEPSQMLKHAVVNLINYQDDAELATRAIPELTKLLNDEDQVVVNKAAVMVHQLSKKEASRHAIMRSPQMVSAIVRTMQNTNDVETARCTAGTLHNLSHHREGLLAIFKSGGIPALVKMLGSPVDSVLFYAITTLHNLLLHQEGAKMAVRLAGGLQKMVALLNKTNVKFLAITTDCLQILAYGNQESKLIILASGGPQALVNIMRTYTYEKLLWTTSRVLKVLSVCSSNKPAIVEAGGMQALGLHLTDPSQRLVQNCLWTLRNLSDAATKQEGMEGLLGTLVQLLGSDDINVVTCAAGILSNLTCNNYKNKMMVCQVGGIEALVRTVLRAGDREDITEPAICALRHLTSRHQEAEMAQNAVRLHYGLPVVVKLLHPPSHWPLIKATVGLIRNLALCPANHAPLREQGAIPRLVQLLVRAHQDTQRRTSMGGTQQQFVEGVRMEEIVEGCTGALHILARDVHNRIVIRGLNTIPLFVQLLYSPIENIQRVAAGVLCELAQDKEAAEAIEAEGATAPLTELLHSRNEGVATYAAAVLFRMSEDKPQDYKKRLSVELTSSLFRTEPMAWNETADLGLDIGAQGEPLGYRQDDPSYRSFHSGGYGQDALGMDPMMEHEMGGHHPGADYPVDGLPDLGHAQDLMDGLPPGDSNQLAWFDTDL
Assay: TCF reporter assay in DLD1 cells (4% or 20% FBS)
Assay type: cell-based
Settings: read-out: DLD1 4% Abs IC50; DLD1 TCF reporter, 4% FBS
Provide the recorded IC50 for the entries that follow.

Example entries and their recorded answers appear below.
Substance	Subject Of Test	IC50
Ac-PL3-Asp-Npg-B5-Asp-TfeGA-Ala-Ala-Phe-Lys*3-PyrS2-2F3MeF-BztA-GlnR*3-Val-NH2 [I-129]	TCF/LEF luciferase reporter in DLD1 cells (Homo sapiens)	1 to 5 µM
Ac-PL3-Asp-Npg-B5-Asp-3COOHF-Aib-Ala-Phe-Lys*3-PyrS2-2F3MeF-BztA-GlnR*3-Leu-Ser-NH2 [I-138]	TCF/LEF luciferase reporter in DLD1 cells (Homo sapiens)	≤ 1 µM
Ac-PL3-Asp-Npg-B5-Asp-3COOHF-Npg-Ala-Phe-Lys*3-PyrS2-2F3MeF-BztA-GlnR*3-Leu-NH2 [I-109]	TCF/LEF luciferase reporter in DLD1 cells (Homo sapiens)	1 to 5 µM
Ac-PL3-Asp-Npg-B5-Asp-3COOHF-Npg-Ala-Phe-Lys*3-PyrS2-2F3MeF-BztA-GlnR*3-Ala-NH2 [I-99]	TCF/LEF luciferase reporter in DLD1 cells (Homo sapiens)	≤ 1 µM
Ac-PL3-Asp-Npg-B5-Asp-3COOHF-Ala-Ala-Phe-sAla*3-PyrS2-3Thi-BztA-TriAzLys*3-NH2 [I-24]	TCF/LEF luciferase reporter in DLD1 cells (Homo sapiens)	1 to 5 µM

Continue with the substance presented below.
Ask: // fetch IC50; item: Ac-PL3-Asp-Npg-B5-Asp-3COOHF-Ala-Ala-Phe-Lys*3-PyrS2-3Thi-BztA-hGlnR*3-Ala-NH2 [I-183] ; system: TCF/LEF luciferase reporter in DLD1 cells (Homo sapiens)
Result: 1 to 5 µM

###

Target: TCF/LEF luciferase reporter in DLD1 cells (Homo sapiens)
Sequence (P35222 2-781): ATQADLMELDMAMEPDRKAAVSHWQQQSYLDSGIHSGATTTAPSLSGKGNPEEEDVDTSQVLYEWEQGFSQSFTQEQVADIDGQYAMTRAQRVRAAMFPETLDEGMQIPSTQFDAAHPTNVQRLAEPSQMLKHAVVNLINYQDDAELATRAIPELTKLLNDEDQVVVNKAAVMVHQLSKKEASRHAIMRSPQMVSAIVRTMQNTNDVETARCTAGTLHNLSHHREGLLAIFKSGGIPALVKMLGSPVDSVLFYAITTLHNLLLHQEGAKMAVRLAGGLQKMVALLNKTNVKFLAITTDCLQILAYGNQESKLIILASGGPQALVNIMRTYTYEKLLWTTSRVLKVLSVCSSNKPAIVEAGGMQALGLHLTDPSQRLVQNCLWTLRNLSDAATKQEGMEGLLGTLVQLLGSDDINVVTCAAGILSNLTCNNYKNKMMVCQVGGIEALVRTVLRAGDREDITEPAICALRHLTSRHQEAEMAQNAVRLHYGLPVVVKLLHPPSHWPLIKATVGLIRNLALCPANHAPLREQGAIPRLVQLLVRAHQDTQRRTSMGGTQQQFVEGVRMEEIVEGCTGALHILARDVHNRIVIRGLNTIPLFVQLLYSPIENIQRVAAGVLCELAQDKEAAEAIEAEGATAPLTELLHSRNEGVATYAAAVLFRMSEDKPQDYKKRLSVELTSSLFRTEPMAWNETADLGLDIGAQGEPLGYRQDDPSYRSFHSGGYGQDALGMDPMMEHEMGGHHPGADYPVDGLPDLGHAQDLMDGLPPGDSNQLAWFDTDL
Assay: TCF reporter assay in DLD1 cells (4% or 20% FBS)
Format: cell-based
Conditions: DLD1 reporter cells; read-out: TCF reporter IC50
Readout Type: IC50

Ask: Quick one: give measured IC50 for Ac-PL3-Glu-Npg-B5-Glu-3COOHF-Aib-Ala-Phe-Lys*3-PyrS2-3Thi-BztA-GlnR*3-Ala-NH2 [I-470]
Result: > 20 µM
